target desc: SCD5 (Homo sapiens)
Construct: host or cells: S. cerevisiae ole1Δ strain (W303 pdr1Δ pdr3Δ background), plasmid pRS316 with TDH3 promoter and CYC1 terminator
Sequence (Q86SK9 1-330): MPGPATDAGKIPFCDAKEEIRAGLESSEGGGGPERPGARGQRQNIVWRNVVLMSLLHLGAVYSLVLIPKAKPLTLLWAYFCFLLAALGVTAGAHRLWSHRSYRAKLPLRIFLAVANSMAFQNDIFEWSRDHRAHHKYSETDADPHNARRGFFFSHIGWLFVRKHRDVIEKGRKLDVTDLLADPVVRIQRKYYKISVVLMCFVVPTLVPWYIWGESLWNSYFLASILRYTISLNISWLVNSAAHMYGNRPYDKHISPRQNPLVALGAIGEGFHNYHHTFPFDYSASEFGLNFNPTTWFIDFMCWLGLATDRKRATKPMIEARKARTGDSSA
assay info: Growth inhibition of humanized yeast strain expressing SCD5 as sole desaturase
Assay type: cell-based
test context: humanized yeast strain, 40 h
assay readout: log10(IC50) (log10 of the value in nM)
Short version: log10 scale, IC50, nM.

Solved cases below.
>  <compound>
CC(C)(C)OC(=O)N1CCC(c2ccc(-c3ccc4cnn(C5COC5)c4c3)nn2)CC1 [Compound 1030]

>  <assay result>
4.04

$$$$
>  <compound>
CC(C)(C)OC(=O)N1CCC(c2nc(-c3ccc4cnc(Br)n4c3)no2)CC1 [Compound 865]

>  <assay result>
1.00

$$$$
>  <compound>
CC1(C(=O)N2CCN(c3nc(-c4ccc5cnn(C6COC6)c5c4)no3)CC2)CCCO1 (centres unmarked) [Compound 916]

>  <assay result>
1.00

$$$$
>  <compound>
CC1(OC(=O)N2CCC(c3noc(-c4ccnc(C5CCOC5)c4)n3)CC2)CC1 (centres unmarked) [Compound 1016]

>  <assay result>
1.79

$$$$
>  <compound>
CC1(CC(=O)N2CCC(c3noc(-c4ccc5cnn(C6COC6)c5c4)n3)CC2)CC1 [Compound 886]

>  <assay result>
1.78

$$$$
>  <compound>
O=C(C1CCC1)N1CCC(c2noc(-c3ccnc(N4CCOCC4)c3)n2)CC1 [Compound 1105]

>  <assay result>
2.74

$$$$
>  <compound>
CCC(=O)N1CCN(c2noc(-c3ccc4cnn(C5COC5)c4c3)n2)CC1 [Compound 841]

>  <assay result>
2.32

$$$$

Now consider a different compound.
Looking up O=C(C1CCC1)N1CCN(c2noc(-c3ccnc(NC4COC4)c3)n2)CC1 [Compound 1001] , I see its log10(IC50) listed as 4.19
